Assay: Antiproliferative activity against human H460 cells after 72 hrs by MTT assay
Format: functional, cell-based
Settings: NCI-H460, 72 h, read-out: IC50
Entries and their measured pIC50 follow.
Please report pIC50 as the negative decimal logarithm of the molar concentration, giving only the number.

CCCCCCNc1c(C#N)c2nc3ccccc3n2c2ccccc12 : 5.70
CC(C)CCNc1ccc2cc(C#N)c3nc4ccccc4n3c2c1 : 5.40
CN1CCN(c2c(C#N)c3nc4ccccc4n3c3ccccc23)CC1 : 5.40
CCCCCCNc1ccc2cc(C#N)c3nc4ccccc4n3c2c1 : 5.30

Query :: Which pIC50 value belongs to CC1CN(c2ccc3cc(C#N)c4nc5ccccc5n4c3c2)CC(C)N1 (stereo not given) ?
Result :: 6.30

----------
Entries and their measured pIC50 follow.
Test: Antiproliferative activity against human H460 cells after 72 hrs by MTT assay
Format: functional, cell-based
Details: NCI-H460, 72 h, read-out: IC50
Please report pIC50 as the negative decimal logarithm of the molar concentration, giving only the number.

Known pIC50 results, listed for orientation:
CC(C)CCNc1c(C#N)c2nc3ccccc3n2c2ccccc12 : 5.70
CCN(CC)c1ccc2c(N(CC)CC)c(C#N)c3nc4ccccc4n3c2c1 : 4.60
N#Cc1c(N2CCOCC2)c2ccc(N3CCOCC3)cc2n2c1nc1ccccc12 : 4.74

Query :: Which pIC50 value belongs to CCCCNc1ccc2c(NCCCC)c(C#N)c3nc4ccccc4n3c2c1 ?
Result :: 5.40

----------
Experiment: Binding affinity to duplex calf thymus DNA assessed as change in melting temperature at drug/DNA ratio of 0.5 by spectrophotometric analysis
property: ΔTm (°C)
The figure you give is taken to be in °C; do not add the unit.

CNc1ccc2c(NC)c(C#N)c3nc4ccccc4n3c2c1 : 1.2

Query :: Which ΔTm value belongs to N#Cc1c(N2CCCCC2)c2ccc(N3CCCCC3)cc2n2c1nc1ccccc12 ?
Result :: 0.7

----------
Entries and their measured IC50 follow.
Assay: Antiproliferative activity against human MCF7 cells after 72 hrs by MTT assay
Format: functional, cell-based
Details: MCF7, 72 h, read-out: IC50
The figure you give is taken to be in µM; do not add the unit.

Known IC50 results, listed for orientation:
CC(C)CCNc1c(C#N)c2nc3ccccc3n2c2ccccc12 : 4
CN1CCN(c2c(C#N)c3nc4ccccc4n3c3ccccc23)CC1 : 3
CC(C)CCNc1ccc2c(NCCC(C)C)c(C#N)c3nc4ccccc4n3c2c1 : 2
CC(C)Nc1c(C#N)c2nc3ccccc3n2c2ccccc12 : 20

Query :: Which IC50 value belongs to CC(C)Nc1ccc2cc(C#N)c3nc4ccccc4n3c2c1 ?
Result :: 0.7

Query :: Which IC50 value belongs to CCN(CC)c1ccc2c(N(CC)CC)c(C#N)c3nc4ccccc4n3c2c1 ?
Result :: 22

Query :: Which IC50 value belongs to N#Cc1c(N2CCNCC2)c2ccc(N3CCNCC3)cc2n2c1nc1ccccc12 ?
Result :: 1

Query :: Which IC50 value belongs to COc1cc([C@@H]2c3cc4c(cc3[C@@H](O[C@@H]3O[C@@H]5CO[C@@H](C)O[C@H]5[C@H](O)[C@H]3O)[C@H]3COC(=O)[C@H]23)OCO4)cc(OC)c1O [ETOPOSIDE] ?
Result :: 1

Query :: Which IC50 value belongs to N#Cc1c(N2CCCCC2)c2ccc(N3CCCCC3)cc2n2c1nc1ccccc12 ?
Result :: 10

Query :: Which IC50 value belongs to CCCN(CCC)c1ccc2c(N(CCC)CCC)c(C#N)c3nc4ccccc4n3c2c1 ?
Result :: 21

Query :: Which IC50 value belongs to CNc1ccc2c(NC)c(C#N)c3nc4ccccc4n3c2c1 ?
Result :: 2

----------
Assay: Antiproliferative activity against human H460 cells after 72 hrs by MTT assay
Format: functional, cell-based
Conditions: NCI-H460, 72 h, read-out: IC50
property: IC50 (µM)
The figure you give is taken to be in µM; do not add the unit.

Known IC50 results, listed for orientation:
CC(C)Nc1c(C#N)c2nc3ccccc3n2c2ccccc12 : 5
N#Cc1c(N2CCCC2)c2ccc(N3CCCC3)cc2n2c1nc1ccccc12 : 12
N#Cc1c(N2CCCCC2)c2ccc(N3CCCCC3)cc2n2c1nc1ccccc12 : 15
CC(C)Nc1ccc2c(NC(C)C)c(C#N)c3nc4ccccc4n3c2c1 : 21

Query :: Which IC50 value belongs to N#Cc1c(N2CCNCC2)c2ccc(N3CCNCC3)cc2n2c1nc1ccccc12 ?
Result :: 4

----------
Assay: Binding affinity to duplex calf thymus DNA assessed as change in melting temperature at drug/DNA ratio of 0.5 by spectrophotometric analysis
property: ΔTm (°C)
The figure you give is taken to be in °C; do not add the unit.

Known ΔTm results, listed for orientation:
CC1CN(c2ccc3cc(C#N)c4nc5ccccc5n4c3c2)CC(C)N1 (stereo not given) : 0
N#Cc1c(N2CCNCC2)c2ccc(N3CCNCC3)cc2n2c1nc1ccccc12 : 20.1
CCCN(CCC)c1ccc2c(N(CCC)CCC)c(C#N)c3nc4ccccc4n3c2c1 : 0

Query :: Which ΔTm value belongs to N#Cc1c(N2CCOCC2)c2ccc(N3CCOCC3)cc2n2c1nc1ccccc12 ?
Result :: 0.5

Query :: Which ΔTm value belongs to N#Cc1c(N2CCCC2)c2ccc(N3CCCC3)cc2n2c1nc1ccccc12 ?
Result :: 0.6

----------
Assay: Antiproliferative activity against human MCF7 cells after 72 hrs by MTT assay
Assay type: functional, cell-based
Settings: MCF7, 72 h, read-out: IC50
pIC50: −log10 of the molar value.
property: pIC50

Known pIC50 results, listed for orientation:
C[N+]1(C)CCN(c2ccc3c(N4CC[N+](C)(C)CC4)c(C#N)c4nc5ccccc5n4c3c2)CC1 : < 4.00
CCCCCCNc1ccc2c(NCCCCCC)c(C#N)c3nc4ccccc4n3c2c1 : < 4.00

Query :: Which pIC50 value belongs to CN1CCN(c2ccc3c(N4CCN(C)CC4)c(C#N)c4nc5ccccc5n4c3c2)CC1 ?
Result :: 5.40 to 5.52

Query :: Which pIC50 value belongs to CCCCCN(CCCCC)c1ccc2c(N(CCCCC)CCCCC)c(C#N)c3nc4ccccc4n3c2c1 ?
Result :: < 4.00
